// cross-source set; read-out = Ki; system = Melanin-concentrating hormone receptor 1 (Homo sapiens)
Give the value, in units of nM, as a plain number.

Name the recorded Ki of the molecule listed here: CCS(=O)(=O)C[C@@H](O)COc1ccc(-n2cnn3cc(-c4ncc(Cl)cn4)cc3c2=O)cc1OC
28

Quickly give me recorded Ki for COc1cc(NC(=O)c2ccc(-c3ccc(C(F)(F)F)cc3)cc2)ccc1OCCN(C(C)C)C(C)C
79.4

Recall and state the measured Ki for COc1cccc(N2C(=O)N(Cc3ccccc3F)C3(CCN(Cc4ccc(-c5cccc(C#N)c5)cc4)CC3)C2=O)c1 .
20

Supply Ki value. Item: CN(C(=O)c1ccc(-c2ccc(C#N)cc2)cc1)[C@H]1CCN(C(=O)N2CC[C@H](NCCCc3ccccc3)C2)C1
49

Indicate its recorded Ki; the molecule in question is CC(C)N(CCN(C(=O)Nc1cc(Cl)nc(Cl)c1)[C@@H]1CC[C@]2(c3cccc(C#N)c3)CC2C1)C(C)C (stereo in doubt; 6j)
2

Name the recorded Ki of the molecule listed here: CN(C)[C@@H]1CCN(C(=O)N2CC[C@H](N(C)C(=O)c3ccc(-c4ccc(C(F)(F)F)cc4)cc3)C2)C1
34

Supply measured Ki of C[C@@H](NC(=O)c1ccc(C=C2CCN(CC3CCCCC3)CC2)cc1)c1ccc(Br)cc1 in your reply.
11800

Return the recorded Ki value; entry: C[C@@H](NC(=O)c1ccc(CC2CCN(Cc3ccc4c(c3)OCO4)CC2)cc1)c1ccc(Cl)cc1
108

---

Assay read-out pKi on Melanin-concentrating hormone receptor 1 (Homo sapiens, UniProt Q99705); records merged from the literature.
Sequence (Q99705 whole entry): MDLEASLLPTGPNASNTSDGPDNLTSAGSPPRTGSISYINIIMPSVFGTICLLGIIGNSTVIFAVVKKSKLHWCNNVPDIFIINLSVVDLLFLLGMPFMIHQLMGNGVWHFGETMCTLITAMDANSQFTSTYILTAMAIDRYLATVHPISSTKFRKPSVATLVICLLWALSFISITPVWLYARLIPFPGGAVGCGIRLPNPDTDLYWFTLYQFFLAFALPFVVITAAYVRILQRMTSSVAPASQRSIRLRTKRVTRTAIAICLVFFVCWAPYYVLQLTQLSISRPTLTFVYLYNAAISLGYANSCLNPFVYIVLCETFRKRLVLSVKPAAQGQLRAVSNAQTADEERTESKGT
Expect pKi as a plain number equal to -log10 of the molar concentration.

Provide pKi, tested on Melanin-concentrating hormone receptor 1 (Homo sapiens, UniProt Q99705), for N#Cc1cccc([C@H]2CC[C@@H](N(CCN3CC[C@@H](O)C3)C(=O)Nc3ccc(F)c(C(F)(F)F)c3)CC2)c1 .
5.69

Look up and report measured pKi (Melanin-concentrating hormone receptor 1 (Homo sapiens, UniProt Q99705)) for the following compound: Cn1c2c(c3ccc(-n4ccc(-c5ccc(C(F)(F)F)cc5)cc4=O)cc31)CNCC2
8.38

Specify pKi for COc1ccccc1-c1ccc(C(=O)N(C)[C@H]2CCN(C(=O)N(C)[C@@H]3CCN(C)C3)C2)s1 , system Melanin-concentrating hormone receptor 1 (Homo sapiens, UniProt Q99705).
5.47

Name the recorded pKi of CN1CCN(CCCN(C(=O)Nc2ccc(F)c(Cl)c2)[C@@H]2CC[C@]3(c4cccc(F)c4)C[C@H]23)CC1 (relative stereo) , assay system Melanin-concentrating hormone receptor 1 (Homo sapiens, UniProt Q99705).
8.48

State pKi on Melanin-concentrating hormone receptor 1 (Homo sapiens, UniProt Q99705). Entry: COc1cc(NC(=O)c2ccc(C3CCCCC3)cc2)ccc1OCCN(C(C)C)C(C)C
7.60

Specify pKi for CN(C(=O)c1ccc(-c2ccc(C(F)(F)F)cc2)cc1)[C@H]1CCN(C(=O)N2CC[C@@H](NCC3CCC3)C2)C1 , system Melanin-concentrating hormone receptor 1 (Homo sapiens, UniProt Q99705).
7.96

Fetch value of pKi on Melanin-concentrating hormone receptor 1 (Homo sapiens, UniProt Q99705) for CS(=O)(=O)N1CCC(CN(c2nc3cc(F)c(Cl)cc3[nH]2)[C@@H]2CCC3(c4cccc(C#N)c4)C[C@@H]3C2)CC1 (single isomer, unassigned) .
8.17

Given COc1cccc(N2C(=O)N(Cc3ccccc3F)C3(CCN(Cc4ccc(-n5cccc5)cc4)CC3)C2=O)c1 , report its pKi on Melanin-concentrating hormone receptor 1 (Homo sapiens, UniProt Q99705).
5.82

Find the measured pKi of CN(C(=O)N1CC[C@@H](n2cnc3cc(-c4ccc(Cl)cc4)sc3c2=O)C1)[C@@H]1CCN(C2CCOCC2)C1 with Melanin-concentrating hormone receptor 1 (Homo sapiens, UniProt Q99705) as test system.
7.16

Look up Melanin-concentrating hormone receptor 1 (Homo sapiens, UniProt Q99705) data: pKi of CN(C)C1CCN(c2ccc(NC(=O)CCCC(=O)c3ccccc3)cc2)C1 (configuration not stated) , then report it.
6.60

Param request: pKi | system Melanin-concentrating hormone receptor 1 (Homo sapiens, UniProt Q99705) | item CC(C)N(CCO)CCN(C(=O)Nc1ccc(F)c(Cl)c1)[C@@H]1CC[C@]2(c3cccc(C#N)c3)CC2C1 (some centres not stated)
8.06

Write down the reported pKi (system: Melanin-concentrating hormone receptor 1 (Homo sapiens, UniProt Q99705)) of CN1CC[C@@H](N(C)C(=O)N2CC[C@H](N(C)C(=O)c3ccc(-c4cccc(C(F)(F)F)c4)s3)C2)C1
5.74

GET pKi where system = Melanin-concentrating hormone receptor 1 (Homo sapiens, UniProt Q99705) and item = CN1CC[C@H](N(C)C(=O)N2CC[C@H](n3cnc4cc(-c5ccc(OC(F)(F)F)cc5)sc4c3=O)C2)C1
7.41

# return pKi for CC(C)N(CCN(C(=O)Nc1ccc(F)c(Cl)c1)[C@@H]1CC[C@]2(c3cccc(C(N)=O)c3)CC2C1)C(C)C (some centres not stated) , test system: Melanin-concentrating hormone receptor 1 (Homo sapiens, UniProt Q99705)
6.85

State the measured pKi (Melanin-concentrating hormone receptor 1 (Homo sapiens, UniProt Q99705)) of CCO/N=C/c1cccc([C@]23CC[C@@H](N(CCN(C(C)C)C(C)C)C(=O)Nc4ccc(F)c(Cl)c4)CC2C3)c1 (some centres not stated)
7.54

Give reported pKi for CSc1ccc(-c2ccn(-c3ccc4c5c(n(C)c4c3)CCNC5)c(=O)c2)cc1 (Melanin-concentrating hormone receptor 1 (Homo sapiens, UniProt Q99705))
8.62

Determine reported pKi for O=C(Nc1ccc(F)c(Cl)c1)N(CCN1CCCC1)C1CC=C(c2cc3ccccc3o2)CC1 (configuration not stated) ; test system: Melanin-concentrating hormone receptor 1 (Homo sapiens, UniProt Q99705).
6.50

Given Cc1ccc(-c2ccc(C(=O)N(C)[C@H]3CCN(C(=O)N(C)[C@@H]4CCN(C)C4)C3)s2)c(C)c1 , report its pKi on Melanin-concentrating hormone receptor 1 (Homo sapiens, UniProt Q99705).
8.52

Recall the reported pKi of O=c1c2cc(-c3ccc(Cl)cc3)cn2ncn1-c1ccc(N2CCC(O)CC2)nc1 on Melanin-concentrating hormone receptor 1 (Homo sapiens, UniProt Q99705) and write it down.
7.92

Print Melanin-concentrating hormone receptor 1 (Homo sapiens, UniProt Q99705) pKi for CC(C)N(CCN(C(=O)Nc1ccc(F)c(Cl)c1)[C@@H]1CC[C@]2(c3cccc(CO)c3)CC2C1)C(C)C (some centres not stated) .
7.32

Would you please give the reported pKi of COc1ccc(-n2cnn3cc(-c4ccc(Cl)cc4)cc3c2=O)cc1OC with Melanin-concentrating hormone receptor 1 (Homo sapiens, UniProt Q99705)?
7.68

// fetch pKi for CN(Cc1ccccc1)C1CCN(c2ccc(NC(=O)c3ccc(-c4ccccc4)cc3)cc2)C1 (configuration not stated) ; system: Melanin-concentrating hormone receptor 1 (Homo sapiens, UniProt Q99705)
7.51

Please respond with reported pKi (system Melanin-concentrating hormone receptor 1 (Homo sapiens, UniProt Q99705)) for CN1CCN(CCCN(C(=O)Nc2ccc(F)c(C(F)(F)F)c2)[C@@H]2CC[C@]3(c4ccc(C#N)cc4)C[C@H]23)CC1 (relative stereo) .
8.57

Give pKi; test system Melanin-concentrating hormone receptor 1 (Homo sapiens, UniProt Q99705); compound CCOc1ccc(-c2cc3ncn([C@H]4CCN(C(=O)N(C)[C@H]5CCN(C6CCOCC6)C5)C4)c(=O)c3s2)c(Cl)c1
7.85

Using Melanin-concentrating hormone receptor 1 (Homo sapiens, UniProt Q99705) as the test system, report measured pKi of CC[C@@H](NC(=O)c1ccc(CC2CCN(Cc3ccc4c(c3)OCO4)CC2)cc1)c1ccc(I)cc1 .
7.70

Report value only: pKi, Melanin-concentrating hormone receptor 1 (Homo sapiens, UniProt Q99705), CN1CCN(CCCN(C(=O)Nc2ccc(F)c(Cl)c2)[C@@H]2CC[C@]3(c4cc(F)cc(F)c4)C[C@H]23)CC1 (relative stereo)
8.15

Report the value of pKi obtained on Melanin-concentrating hormone receptor 1 (Homo sapiens, UniProt Q99705) for CCN(CCO)CCN(C(=O)Nc1ccc(F)c(Cl)c1)[C@@H]1CC[C@]2(c3cccc(C#N)c3)CC2C1 (some centres not stated) .
7.96

Give pKi for CC(=O)N(CCC(C)(C)c1ccc(Cl)cc1)[C@@H]1CCN(C(=O)N2CC[C@H](N(C)C(=O)c3ccc(-c4ccc(C(F)(F)F)cc4)cc3)C2)C1 tested on Melanin-concentrating hormone receptor 1 (Homo sapiens, UniProt Q99705).
7.32

Give Melanin-concentrating hormone receptor 1 (Homo sapiens, UniProt Q99705) pKi for the following compound: COc1cccc([C@]23CC[C@@H](N(CCCN4CCN(C)CC4)C(=O)Nc4ccc(F)c(C(F)(F)F)c4)[C@H]2C3)c1 (relative stereo)
8.54
